Hello, the source for this data is patent US20170145113A1, in case you need it.

# Target Or Test System: T1, His-tagged human HtrA1 protease domain (human, UniProt Q92743 161-367)
# T1 construct: His-tagged protease domain; also called huHtrA1-PD-His; huHtrA1-PD
# T1 sequence (Q92743 other isoform, or with tags, fused parts or gaps limits assumed): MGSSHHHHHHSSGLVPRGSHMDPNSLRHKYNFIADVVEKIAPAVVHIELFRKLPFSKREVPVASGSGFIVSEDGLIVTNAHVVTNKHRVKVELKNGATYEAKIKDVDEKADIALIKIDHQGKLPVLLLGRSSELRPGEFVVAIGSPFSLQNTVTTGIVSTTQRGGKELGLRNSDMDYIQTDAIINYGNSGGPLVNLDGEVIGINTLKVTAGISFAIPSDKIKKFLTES
# Test Details: BIACORE T200 SPR; Fab analyte over huHtrA1-PD-His captured by anti-His antibody
pKd: −log10 of the molar value.
# key: entry, value: pKd

{"Binder": "combination mutant LC3.HC1 Fab (Fab, V domains shown, Fab) VH: EVQLVQSGAEVKKPGASVKVSCKASGYTFKDSEMHWVRQAPGQGLEWIGGVDPETDGAAYNQKFKGRATITRDTSTSTAYLELSSLRSEDTAVYYCTRGYDYDYALDYWGQGTLVTVSS VL: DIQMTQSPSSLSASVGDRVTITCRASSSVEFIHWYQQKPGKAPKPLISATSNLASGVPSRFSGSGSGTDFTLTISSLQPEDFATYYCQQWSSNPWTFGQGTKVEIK", "pKd": 10.05}
{"Binder": "APEG.LC3.HC2 (Fab, V domains shown) VH: EVQLVQSGAEVKKPGASVKVSCKASGYTFRDSEMHWVRQAPGQGLEWIGGVDPETEGAAYNQKFKGRATITRDTSTSTAYLELSSLRSEDTAVYYCTRGYDYDYALDYWGQGTLVTVSS VL: DIQMTQSPSSLSASVGDRVTITCRASSSVEFIHWYQQKPGKAPKPLISATSNLASGVPSRFSGSGSGTDFTLTISSLQPEDFATYYCQQWSSAPWTFGQGTKVEIK", "pKd": 9.93}
{"Binder": "APEG.LC7.HC3 (Fab, V domains shown) VH: EVQLVQSGAEVKKPGASVKVSCKASGYKFTDSEMHWVRQAPGQGLEWIGGVDPETEGAAYNQKFKGRATITRDTSTSTAYLELSSLRSEDTAVYYCTRGYDYDYALDYWGQGTLVTVSS VL: DIQMTQSPSSLSASVGDRVTITCRASSSVNFIHWYQQKPGKAPKPLISATSNLASGVPSRFSGSGSGTDFTLTISSLQPEDFATYYCQQWYSAPWTFGQGTKVEIK", "pKd": 9.48}
{"Binder": "APEG.LC3.HC1 (Fab, V domains shown, single member of the group m82) VH: EVQLVQSGAEVKKPGASVKVSCKASGYTFKDSEMHWVRQAPGQGLEWIGGVDPETEGAAYNQKFKGRATITRDTSTSTAYLELSSLRSEDTAVYYCTRGYDYDYALDYWGQGTLVTVSS VL: DIQMTQSPSSLSASVGDRVTITCRASSSVEFIHWYQQKPGKAPKPLISATSNLASGVPSRFSGSGSGTDFTLTISSLQPEDFATYYCQQWSSAPWTFGQGTKVEIK", "pKd": 9.97}
{"Binder": "APEG.LC37.HC13 (Fab, V domains shown, single member of the group m82) VH: EVQLVQSGAEVKKPGASVKVSCKASGYKFKDSEMHWVRQAPGQGLEWIGGVDPETEGAAYNQKFKGRATITRDTSTSTAYLELSSLRSEDTAVYYCTRGYDYDYALDYWGQGTLVTVSS VL: DIQMTQSPSSLSASVGDRVTITCRASSSVEFIHWYQQKPGKAPKPLISATSNLASGVPSRFSGSGSGTDFTLTISSLQPEDFATYYCQQWYSAPWTFGQGTKVEIK", "pKd": 10.02}
